B1: NCOA2 peptide 1073-1088 (Nuclear receptor coactivator 2), 16-mer library wild type / NSP3 UBl1 (ORF1ab Nsp3a Ub1, residues 819-925) (parent)
chain 1: PSDEGALLDQLYLALR
chain 2: APTKVTFGDDTVIEVQGYKSVNITFELDERIDKVLNEKCSAYTVELGTEVNEFACVVADAVIKTLQPVSELLTPLGIDLDEWSMATYYLFDESGEFKLASHMYCSFY

variants of: B1; conditions: with NSP3 UBl1 (ORF1ab Nsp3a Ub1, residues 819-925); bait immobilised on MaxiSorp plates (10 µg), library pre-cleared on GST, 2 h binding at 4 °C, five washes; one round per day, days 1-4; value from days 2 and 3; keep out of graded; scale: average fractional NGS count over selection days 2 and 3
Documented screen value across a set of variants

mutant | screen value
chain 1 G5S | 1.04e-05
chain 1 R16M | 7.36e-05
chain 1 G5A | 5.46e-06
chain 1 S2M | 8.73e-06
chain 1 L15N | 0
chain 1 A14R | 6.24e-06
chain 1 A6L | 2.33e-05
chain 1 L11R | 0
chain 1 A6M | 1.23e-05
chain 1 L11K | 0
chain 1 E4F | 0
chain 1 L8N | 0
chain 1 L11Y | 0
chain 1 L11D | 0
chain 1 L11P | 0
chain 1 S2V | 8.33e-06
chain 1 Q10W | 0
chain 1 L8E | 0
chain 1 D9P | 0.000642
chain 1 L8Q | 0
chain 1 L11V | 9.51e-06
chain 1 L15I | 7.04e-06
chain 1 G5N | 0
chain 1 S2I | 0
chain 1 S2H | 1.09e-05
chain 1 G5T | 0
chain 1 S2Q | 0.000342
